- measured target: T1, latent TGF-beta 1 (UniProt P01137 30-390, limits assumed)
- T1 construct: Latent complex (pro-peptide with mature TGF-beta 1); also called Latent TGF-β1; latent form of TGF-beta 1
- T1 sequence (P01137 30-390 limits assumed): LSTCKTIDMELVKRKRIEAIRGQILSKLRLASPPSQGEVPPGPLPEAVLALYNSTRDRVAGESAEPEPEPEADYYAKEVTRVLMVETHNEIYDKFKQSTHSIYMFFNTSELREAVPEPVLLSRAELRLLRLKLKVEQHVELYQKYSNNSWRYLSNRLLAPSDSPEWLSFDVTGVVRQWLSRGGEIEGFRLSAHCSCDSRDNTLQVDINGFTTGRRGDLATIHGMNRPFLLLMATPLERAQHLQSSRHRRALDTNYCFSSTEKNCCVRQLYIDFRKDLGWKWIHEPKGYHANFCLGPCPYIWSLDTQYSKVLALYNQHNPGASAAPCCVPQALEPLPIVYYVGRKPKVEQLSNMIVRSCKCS
- protocol summary: Biacore SPR, mAb captured on Protein A, 5 nM ligand injected; stoichiometry from captured signals
In this section we review reported Stoichiometry of ligand binding values for a set of binders.
Answer with the value's number alone.

Here are 4 binders together with their reported answers.
[
  {
    "binder": "mAb 23A3 (antibody, IgG4, V domains shown) VH: QVQLVQSGAEVKKPGASVKVSCKASGYDFTDYNMVWVRQAPGQGLEWMGSIYPYDGETGYNQKFKSRVTMTTDTSTSTAYMELRSLRSDDTAVYYCARGYRAFEYWGQGTLVTVSS VL: DIQMTQSPSSLSASVGDRVTITCRASSSVPYMHWYQQKPGKAPKLLIYATSNPAYGVPSRFSGSGSGTDFTLTISSLQPEDFATYYCQQWDLNPPAFGQGTKLEIK",
    "Stoichiometry of ligand binding": 0.07
  },
  {
    "binder": "mAb DM4 (antibody, human IgG4 S228P, kappa, V domains shown, Full-length IgG4 antibody; also called LA307-DM4) VH: QVQLVQSGAEVKKPGASVKVSCKASGYDFTDYNIHWVRQAPGQGLEWMGYIYPYDGETGYNQKFKSRVTMTTDTSTSTAYMELRSLRSDDTAVYYCARGYRWLAYWGQGTLVTVSS VL: DIQMTQSPSSLSASVGDRVTITCRASSSVSYMHWYQQKPGKAPKPLIYATSNLAYGVPSRFSGSGSGTDFTLTISSLQPEDFATYYCQQWDLNPPAFGQGTKLEIKR",
    "Stoichiometry of ligand binding": 0.03
  },
  {
    "binder": "mAb DM7 (antibody, IgG4, V domains shown) VH: QVQLVQSGAEVKKPGASVKVSCKASGYDFTDYNMHWVRQAPGQGLEWMGYIYPYDGETGYNQKFKSRVTMTTDTSTSTAYMELRSLRSDDTAVYYCARGYRWLYYWGQGTLVTVSS VL: DIQMTQSPSSLSASVGDRVTITCRASSSVSYMHWYQQKPGKAPKPLIYATSNLAKGVPSRFSGSGSGTDFTLTISSLQPEDFATYYCQQWDLNPPAFGQGTKLEIK",
    "Stoichiometry of ligand binding": 0.04
  },
  {
    "binder": "mAb 21D1 (antibody, human IgG4 S228P, kappa, V domains shown, Full-length IgG4 antibody; also called LA307-21D1) VH: QVQLVQSGAEVKKPGASVKVSCKASGYTFTDYNIHWVRQAPGQGLEWMGYIYPYDGETGYNQKFKSRVTMTTDTSTSTAYMELRSLRSDDTAVYYCARGYRWFAYWGQGTLVTVSS VL: DIQMTQSPSSLSASVGDRVTITCRASSSVPYMHWFQQKPGKAPKSLIYATSNPAYGVPSRFSGSGSGTDFTLTISSLQPEDFATYYCQQWDLNPPAFGQGTKLEIKR",
    "Stoichiometry of ligand binding": 0.05
  }
]

# evaluate next
The recorded Stoichiometry of ligand binding for entry mAb C27 (antibody, IgG4, V domains shown) VH: QVQLVQSGAEVKKPGASVKVSCKASGYTFTDYNIHWVRQAPGQGLEWMGYIYPYDGETGYNQKFKSRVTMTTDTSTSTAYMELRSLRSDDTAVYYCARGYRAFEYWGQGTLVTVSS VL: DIQMTQSPSSLSASVGDRVTITCRASSSVPYMHWYQQKPEKAPKSLIYATSNLAFGVPSRFSGSGSGTDFTLTISSLQPEDFATYYCQQWDLNPPAFGQGTKLEIK equals 0.08
